- System: MBP-FALDR fusion protein
- test: Inhibition of decanal reduction by MBP-FALDR in the presence of NADPH
- Assay type: biochemical, Marinobacter aquaeolei VT8
- conditions.used: inhibitor 1.0 mM; 100 mM MES pH 6.5, 200 μM NADPH, 250 μM decanal, 125 μg MBP-FALDR; activity remaining vs no inhibitor
property.name: Percent Activity (%)
Express the result in % but write the number alone.

# query: Percent Activity of entry O=C1O[C@H]([C@@H](O)CO)C(O)=C1O [Ascorbic Acid]
76

# query: Percent Activity of entry CCCCCCCCCCCCO [Dodecanol]
54

# query: Percent Activity of entry O=S(O)S(=O)O [Dithionite]
25

# query: Percent Activity of entry c1ccc(-c2ccccn2)nc1 [Dipyridyl]
46

# query: Percent Activity of entry O[C@H](CS)[C@H](O)CS (racemic) [Dithiothreitol]
76
